Molecular target: 5-HT1D-like receptor (Oryctolagus cuniculus, UniProt P49144)
Construct: Ring segments of the vein (4-5 mm in length) were cut and the endothelium gently removed; from tissue; host or cells: saphenous vein rings, endothelium removed, male New Zealand White rabbits
Sequence (P49144 whole entry): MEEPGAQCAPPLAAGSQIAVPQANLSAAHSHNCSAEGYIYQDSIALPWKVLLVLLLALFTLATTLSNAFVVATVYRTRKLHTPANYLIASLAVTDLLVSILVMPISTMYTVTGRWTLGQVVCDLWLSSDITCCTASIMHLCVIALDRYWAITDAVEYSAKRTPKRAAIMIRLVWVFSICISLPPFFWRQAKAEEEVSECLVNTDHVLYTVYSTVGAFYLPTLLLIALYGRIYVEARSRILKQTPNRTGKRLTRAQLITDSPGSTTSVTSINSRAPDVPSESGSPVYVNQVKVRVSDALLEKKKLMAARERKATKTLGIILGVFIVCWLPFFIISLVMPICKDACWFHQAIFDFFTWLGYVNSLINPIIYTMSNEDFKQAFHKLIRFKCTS
Assay: Agonist assay: contraction of rabbit isolated saphenous vein (5-HT1D-like receptor agonist activity)
Design: species or system rabbit (New Zealand White)
As shown below, each of these compounds has a reported pEC50 value.
Value format note: pEC50 is -log10 of concentration (mol/L); just state the number.

Illustrative cases are given below, each with its answer.
1. CN1CCC[C@@H]1Cc1c[nH]c2ccc(C(C)(C)C)cc12 = 7.28
2. Cc1ccc2[nH]cc(C[C@H]3CCCN3C)c2c1 = 7.00
3. Cc1ccc2[nH]cc(C[C@H]3CCCN3)c2c1 = 6.08
4. Cc1ccc2[nH]cc(CCN3CC=CC3)c2c1 = 5.54

Please turn your attention to the following entry.
Asked: Kindly state the measured pEC50 obtained for `CC(C)c1ccc2[nH]cc(CCN3CCCC3)c2c1` with 5-HT1D-like receptor (Oryctolagus cuniculus, UniProt P49144).
Given back: 6.60
